Every entry's value here was drawn from the supplement of paper PMC10567573.

B1: PI4K2A (parent)
chain: FVKDPQGRIIAVFKPKNEEPYGHL

Variants of: B1
Experiment: protein stability index of a GFP-peptide fusion (GPS, HEK-293T) (PSI 1-6); higher = more stable;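 note: lentivirally expressed fusions sorted by FACS into six bins by GFP to DsRed ratio, PSI derived from sequencing read proportions per bin multiplied by bin number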
Conditions: c terminus: a fixed tail appended
Returns 1 if the recorded protein stability index is greater than or equal to 2, and 0 otherwise.

Mutation Spec | Category Label
R8C | 1
A11G | 1
I9R | 0
G22C | 0
A11K | 1
K14C | 1
P15F | 0
K3R | 1
K14Q | 1
P20I | 0
K14P | 1
Q6V | 1
I9L | 1
Q6K | 0
P15D | 0
A11C | 0
I10A | 1
P5M | 0
E19Y | 0
